Ref: ChEMBL document CHEMBL1133644

- protocol-description: biological half-life was measured on rhesus monkeys
- Format: ADME, organism-based, Macaca mulatta
- test-parameters: rhesus monkey, in vivo
quantity-measured: half-life
State the value with its unit after it.

half-life lookup needed for C[C@H](NC(=O)c1ccc(C(=N)N)cc1)C(=O)N1CCC(OCC(=O)O)CC1 , thanks.
306 min

###

- protocol-description: half-life of compound in human
- test-parameters: in vivo
quantity-measured: half-life (min)
# output: bare number, implied unit min

half-life lookup needed for CCCCS(=O)(=O)N[C@@H](Cc1ccc(OCCCCC2CCNCC2)cc1)C(=O)O [TIROFIBAN] , thanks.
30

###

- protocol-description: Bioavailability in humans
- Assay type: ADME, organism-based
- test-parameters: human, in vivo
quantity-measured: bioavailability (%)
# output: bare number, implied unit %

bioavailability lookup needed for CCOC(=O)CN1CCN(C[C@@H]2CN(c3ccc(C(N)=NC(=O)OC)cc3)C(=O)O2)CC1 , thanks.
40

###

- protocol-description: oral bioavailability was measured on rats
- Type: ADME, organism-based
- test-parameters: rat, in vivo
quantity-measured: bioavailability (%)
# output: bare number, implied unit %

bioavailability lookup needed for CCOC(=O)CCN1CC(=O)N(C)c2ccc(C#Cc3ccc(C(=N)NC(=O)OCC)cc3)cc2C1=O , thanks.
6
